Test system: whole blood platelet aggregation
Assay: Platelet aggregation assay, whole blood (ADP-induced, impedance mode)
Type: cell-based, human (healthy volunteers)
Conditions: Homo sapiens, read-out: PLATELET DATA IC50 Whole Blood, inhibition of aggregation by maximally effective ADP, whole blood diluted 1:1 with saline
Test readout: IC50 (nM)
Numbers only; they are read as nM.

Fill in the blank: the reported IC50 of CCNC(=O)Nc1ncnc2c1ncn2[C@@H]1O[C@H](COP(=O)(O)OC)C2O[C@H](/C=C/c3ccccc3)O[C@@H]21 (stereo partly shown) is ____.
2500
